Collected TGI values appear next to each entry.
Test system: DLD-1 colon
assay name: NCI tumour cell line growth inhibition, 48 h

Past entries and their recorded results:
{"columns": ["molecule", "system", "parameter", "result"],
 "data": [
  ["C[N+](C)(C)CCC(=O)CC[N+](C)(C)C", "DLD-1 colon", "TGI", "39.2 µM"],
  ["O=C(COc1ccccc1Cl)N1N=C(c2ccc(Cl)cc2)CC1(O)c1ccccc1 (stereo unspecified)", "DLD-1 colon", "TGI", "> 100 µM"],
  ["CCc1cccc(C)c1NS(=O)(=O)c1ccccc1", "DLD-1 colon", "TGI", "> 100 µM"],
  ["c1cc[c]([Sn][c]2ccccc2)cc1", "DLD-1 colon", "TGI", "23.2 µM"],
  ["COc1cc(Cl)cc(=O)c(O)c1OC", "DLD-1 colon", "TGI", "> 100 µM"]
]}

Look at this molecule and give its reported TGI. O=C1Nc2ccccc2C1(O)C/C(=N/O)c1ccc2ccccc2c1 (stereo unspecified)
> 100 µM

Look at this molecule and give its reported TGI. `O=C(O)CCNS(=O)(=O)c1ccc(NC(=O)c2ccccc2)cc1`
> 100 µM

Look at this molecule and give its reported TGI. `CC(=O)OCc1c2ccccc2c(C)c2c1cc(F)c1ccccc12`
64.3 µM

Look at this molecule and give its reported TGI. `N#CC(N)=Nc1ccccc1`
> 100 µM

Look at this molecule and give its reported TGI. COC(=O)/C(=N\NC(C)(C)C)C(C(=O)OC)C(=O)C(=O)Nc1cc(Cl)ccc1Cl (stereo unspecified)
> 100 µM

Look at this molecule and give its reported TGI. `COC(=O)c1sc(C(=O)OC)c2c1CS(=O)C2`
> 100 µM
